- study_target: Steroidogenic factor 1 (Homo sapiens)
- Sequence (Q13285 whole entry, the tested form may be a part): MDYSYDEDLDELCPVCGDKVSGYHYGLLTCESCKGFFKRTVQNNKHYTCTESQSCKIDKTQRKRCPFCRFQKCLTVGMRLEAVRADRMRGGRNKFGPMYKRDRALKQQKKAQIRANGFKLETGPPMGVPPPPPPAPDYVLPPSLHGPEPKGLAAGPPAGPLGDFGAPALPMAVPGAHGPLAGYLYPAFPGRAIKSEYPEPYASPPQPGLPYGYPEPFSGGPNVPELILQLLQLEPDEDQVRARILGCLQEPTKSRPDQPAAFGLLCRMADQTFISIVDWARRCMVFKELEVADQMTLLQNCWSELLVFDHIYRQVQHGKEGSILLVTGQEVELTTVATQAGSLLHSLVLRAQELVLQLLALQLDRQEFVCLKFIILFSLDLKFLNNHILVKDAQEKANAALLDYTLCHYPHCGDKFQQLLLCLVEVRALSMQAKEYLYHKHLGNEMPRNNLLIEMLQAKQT
- method_summary: inhibition of SF-1 LBD-driven luciferase – cell-based, CHO-K1, Gal4-SF-1 LBD, luciferase luminescence, counter-screen for RORA inhibitor project, dose response (AID 611)
measured_attribute: IC50 (µM)

I. Cc1nnc(Sc2nc(Sc3nnc(C)s3)nc(N3CCN(C)CC3)n2)s1
II. CCc1ccc(-c2nc(CSCC(=O)NCCCN3CCCC3=O)c(C)o2)cc1
Please state the entry with greater IC50 among I and II . To answer, give the label that identifies your chosen option.
II

1. Clc1ccc(OCCN2CCN(c3ncnc4sccc34)CC2)cc1
2. CC(=O)c1c(C)[nH]c(C(=O)OCCCCN2C(=O)c3ccccc3C2=O)c1C
3. CN(C)c1ccc(NC(=S)c2ccccn2)cc1 [MLS000111989]
Rank order required: IC50, descending. Output the labels ranked as instructed.
2, 3, 1
(2: 5.04 µM, 3: 3.04 µM, 1: 1.44 µM)

P. O=C(O)c1cccc(COc2ccc(CO)cc2Cl)c1
Q. COc1ccc(CCNc2c(C)c(C)nc3ncnn23)cc1
R. CNC(=O)CCc1nc(-c2ccc(C(C)(C)C)cc2)no1
S. COc1ccccc1-c1nnc2sc(-c3ccc(N(C)C)cc3)nn12
Arrange items by their IC50 values in increasing order. Output the labels ranked as instructed.
R, P, S, Q
(R: 0.075 µM, P: 0.329 µM, S: 3.24 µM, Q: 6.45 µM)
